- target-entity: human metabotropic Glutamate 4 receptor (Homo sapiens (Human), UniProt Q14833)
- Sequence (Q14833 33-912): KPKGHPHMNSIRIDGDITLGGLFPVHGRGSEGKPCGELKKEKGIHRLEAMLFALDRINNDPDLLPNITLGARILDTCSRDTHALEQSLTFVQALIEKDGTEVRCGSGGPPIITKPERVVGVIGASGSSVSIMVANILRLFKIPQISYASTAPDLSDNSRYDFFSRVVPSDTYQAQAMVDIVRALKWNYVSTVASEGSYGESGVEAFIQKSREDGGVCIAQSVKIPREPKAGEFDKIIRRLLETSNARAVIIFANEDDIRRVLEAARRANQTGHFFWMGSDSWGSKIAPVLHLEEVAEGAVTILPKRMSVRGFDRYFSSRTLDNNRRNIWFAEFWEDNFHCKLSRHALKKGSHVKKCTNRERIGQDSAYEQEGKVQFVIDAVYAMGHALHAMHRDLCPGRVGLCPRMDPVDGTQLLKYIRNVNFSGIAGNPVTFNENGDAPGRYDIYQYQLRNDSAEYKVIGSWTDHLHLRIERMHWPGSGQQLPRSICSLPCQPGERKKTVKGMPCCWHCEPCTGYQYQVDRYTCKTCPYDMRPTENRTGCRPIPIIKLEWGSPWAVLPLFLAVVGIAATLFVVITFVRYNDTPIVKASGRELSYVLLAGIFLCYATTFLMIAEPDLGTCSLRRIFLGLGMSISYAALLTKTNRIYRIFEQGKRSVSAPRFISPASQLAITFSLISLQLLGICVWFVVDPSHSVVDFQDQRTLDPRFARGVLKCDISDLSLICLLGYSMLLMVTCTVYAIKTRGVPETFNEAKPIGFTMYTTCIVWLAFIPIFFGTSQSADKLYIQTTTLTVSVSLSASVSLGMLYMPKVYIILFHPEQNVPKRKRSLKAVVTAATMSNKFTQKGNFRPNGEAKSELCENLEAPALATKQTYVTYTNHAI
- method: Assay A: in vitro testing of mGluR4 potency (cAMP HTRF, glutamate/forskolin stimulated)
- Format: cell-based
- condition-notes: HEK293 cells overexpressing human mGluR4; 10 uM L-glutamic acid, 1 uM forskolin; prior-art compounds of WO2019/138017
endpoint-name: IC50

Some solved entries appear below for comparison.
- compound: "Cn1nccc1C(=O)N[C@H](c1nc2c(F)c(Br)ccc2n1C)[C@H]1CC[C@H](C)CC1 [Intermediate 250 in WO2019/ 138017 (regioisomere 2), reference compound]"
  target-entity: "human metabotropic Glutamate 4 receptor (Homo sapiens (Human), UniProt Q14833)"
  IC50: "4 µM"
- compound: "Cc1nocc1C(=O)N[C@H](c1nc2cccc(F)c2[nH]1)[C@H]1CC[C@H](C)CC1 [Example 8 in WO2019/ 138017, reference compound]"
  target-entity: "human metabotropic Glutamate 4 receptor (Homo sapiens (Human), UniProt Q14833)"
  IC50: "9.85 µM"
- compound: "CCn1nccc1C(=O)N[C@H](c1nc2ccc(C#N)c(F)c2[nH]1)[C@H]1CC[C@H](C)CC1 [Example 125 in WO2019/ 138017, reference compound]"
  target-entity: "human metabotropic Glutamate 4 receptor (Homo sapiens (Human), UniProt Q14833)"
  IC50: "5.6 µM"
- compound: "Cn1nccc1C(=O)N[C@H](c1nc2c(F)c(Br)ccc2n1C)[C@H]1CC[C@@H](C)CC1 [Intermediate 250 in WO2019/ 138017 (regioisomere 1), reference compound]"
  target-entity: "human metabotropic Glutamate 4 receptor (Homo sapiens (Human), UniProt Q14833)"
  IC50: "6.3 µM"

query: So what does the record say about IC50 for COc1ccc2[nH]c(C(NC(=O)c3conc3C)C3CCCCCCC3)nc2c1F (centres unmarked) [Example 12 in WO2019/ 138017, reference compound] ?
result: > 10 µM

----------
- target-entity: human metabotropic Glutamate 4 receptor (Homo sapiens (Human), UniProt Q14833)
- method: Assay A: in vitro testing of mGluR4 potency (cAMP HTRF, glutamate/forskolin stimulated)
- Assay type: cell-based
- condition-notes: HEK293 cells overexpressing human mGluR4; 10 uM L-glutamic acid, 1 uM forskolin; compounds of the present invention
// class assignment uses IC50 with these ranges: low end (below 10 nM), middle (10 nM to below 30 nM), high end (30 nM or more)

query: Hello team, could you let me know which band the following compound falls into: `Cc1cnc(C(=O)N[C@H](c2nc3ccc(F)cc3n2CC(F)F)[C@H]2COCCO2)cn1`
result: high end

query: Would you mind doing Cc1cnc(C(=O)NC(c2nc3ccc(C(F)(F)F)cc3n2CC(F)F)C2COCCO2)cn1 (single isomer, unassigned) as well?
result: low end

query: Would you mind doing Cc1cnc(C(=O)NC(c2nc3ccc(C(F)(F)F)cc3n2C)C2COCCO2)cn1 (single isomer, unassigned) as well?
result: high end

query: Would you mind doing `Cc1cnc(C(=O)N[C@H](c2nc3cc(F)ccc3n2CC(F)F)[C@H]2COCCO2)cn1` as well?
result: middle

query: Would you mind doing Cc1cnc(C(=O)NC(c2nc3cc(Cl)ccc3n2CC(F)F)C2COCCO2)cn1 (single isomer, unassigned) [Example 4] as well?
result: low end

query: Would you mind doing Cc1cnc(C(=O)NC(c2nc3cc(C(F)(F)F)ccc3n2C)C2COCCO2)cn1 (single isomer, unassigned) as well?
result: high end

query: Would you mind doing `Cc1cnc(C(=O)N[C@H](c2nc3cc(C(F)(F)F)ccc3n2C)[C@H]2COCCO2)cn1` as well?
result: middle

query: Would you mind doing CCn1c(C(NC(=O)c2cnc(C)cn2)C2COCCO2)nc2cc(F)ccc21 (single isomer, unassigned) as well?
result: middle

query: Would you mind doing Cc1cnc(C(=O)NC(c2nc3cc(Cl)ccc3n2CC(F)F)C2COCCO2)cn1 (single isomer, unassigned) [Example 5] as well?
result: high end

query: Would you mind doing CCn1c(C(NC(=O)c2cnc(C)cn2)C2COCCO2)nc2cc(F)c(F)cc21 (single isomer, unassigned) as well?
result: middle

query: Would you mind doing `CCn1c([C@@H](NC(=O)c2cnc(C)cn2)[C@H]2COCCO2)nc2cc(C(F)(F)F)ccc21` as well?
result: low end

query: Would you mind doing Cc1cnc(C(=O)NC(c2nc3cc(F)c(F)cc3n2CC(F)F)C2COCCO2)cn1 (single isomer, unassigned) as well?
result: middle
